# TARGET UNDER TEST: T1, recombinant human interleukin-4 (human, UniProt P05112 25-153)
# T1 sequence (looked up): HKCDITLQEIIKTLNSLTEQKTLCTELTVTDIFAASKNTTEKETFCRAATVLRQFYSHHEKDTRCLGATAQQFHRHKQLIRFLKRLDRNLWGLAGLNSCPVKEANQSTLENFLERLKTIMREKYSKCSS
# ASSAY SUMMARY: cell-based or functional assay
Mark Criterion met for reported BAF cell proliferation IC50 of 200 pM or greater; mark Criterion not met for anything smaller.

Worked set:
BINDER	ASSIGNED LABEL
Example 3 antibody comprising SEQ ID NO:17 and SEQ ID NO:18 (antibody, human IgG1, V domains shown, also called Ex. 3) VH: QVQLVESGGGMVQPGRSLRLSCAASGFTLSSYGMHWVRQAPGKGLEWVTVIWYDGNNQYYADSVKGRFTISRDNSKNTLYLQMNSLRAEDTAVYYCAREGSWSPDIFDIWGQGTMVTVSS VL: AIQLTQSPSSLSASVGDRVTITCRASQGISSYLAWYQQKPGKAPKLLIYDASSLESGVPSRFSGSGSGTDFTLTISSLQPEDFATYYCQQFNSYPITFGQGTRLEIKR	Criterion not met
Example 2 antibody comprising SEQ ID NO:9 and SEQ ID NO:10 (antibody, human IgG1, V domains shown, also called Ex. 2) VH: QVQLVESGGGVVQPGRSLRLSCAASGFTLSSFGMHWVRQAPGKGLEWVAVIWYDGSNEYYADSVKGRFTTSRDNSKNTLYLQMNSLRAEDTAVYYCAREGSWSPDIFDIWGQGTMVTVSS VL: AIQLTQSPSSLSASVGDRVTITCRTSQGIRSALAWYQQNPGKAPKLLIYDASSLESGVPSRFSGSGSGTDFTLTISSLQPEDFATYYCQQFNSYPVTFGQGTRLEIKR	Criterion not met
Example 4 antibody comprising SEQ ID NO:25 and SEQ ID NO:26 (antibody, human IgG1, V domains shown, also called Ex. 4) VH: QVQLVQSGAEVKKPGSSVKVSCKASGDTFSSYAISWVRQAPGQGFEWMGGIIPVIGTVNYEERFQDRVTITADNSTSTAYMELTSLRSEDTAVYFCGREEGFLDYWGQGTLVTVSS VL: AIQLTQSPSSLSASVGDRVTITCRASQGISSALAWYQQKPGKAPKLLIYDASSLESGVPSRFSGSGSGTDFTLTISSLQPEDFATYYCQQFNSYPLLTFGGGTKVEIKR	Criterion met
Example 1 antibody comprising SEQ ID NO:1 and SEQ ID NO:2 (human IL-4 specific monoclonal antibody) (antibody, human IgG1, V domains shown, also called Ex. 1; mAb as defined by CDRs as described in claim 2a)) VH: QVQLVESGGGVVQPGRSLRLSCAASGFTFSSYAMHWVRQAPGKGLEWVTFIWDDGSFKYYAESVKGRFTISRDNSKNTLYLQMNSLRAEDTAVYYCAREGSWSPDIFDIWGQGTMVTVSS VL: AIQLTQSPSSLSASVGDRVTITCRASQGISRALAWYQQKPGKAPKLLIYDASSLESGVPSRFSGSGSGTDFTLTISSLQPEDFATYYCQQFNSYPITFGQGTRLEIKR	Criterion not met

Could you tell me if the measured BAF cell proliferation IC50 of Example 5 antibody comprising SEQ ID NO:33 and SEQ ID NO:34 (antibody, human IgG1, V domains shown, also called Ex. 5) VH: QVQLVESGGGVVQPGRSLRLSCAASGFTFSCCGMHWVRQAPGKGLEWVAVIWYDGSNKYYADSVKGRFTISRDTSKNTLYLQMNSLRAEDTAVYYCATDSSGSFYEYFQHWGQGTLVTVSS VL: AIQLTQSPSSLSASVGDRVTITCRASQGINSALAWYQQKPGKAPKLLIYDASSLESGVPSRFSGSGSGTDFTLTISSLQPEDFATYYCQQFNSYPYTFGQGTKLEIKR reaches 200 pM or more?
Criterion met
